Test: protease stability score; higher = more stable; yeast display proteolysis, trypsin and chymotrypsin;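 further: relative to predicted unfolded state with 0 unfolded-like and 1 meaning tenfold more protease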
measured.endpoint: protease stability score

// each sequence listed below needs its protease stability score
1. DEEDHESHEMMRQHFEAFVTGDFESFTRYADPHVRLIVGDKHFHGRDLIVHVFLRLWHELGVKVSRIKEIHSVGDKMHLDGELHVGDKRFRLLVEARKFDGRWFNKRVELVIL
2. DEEEEIARRITELWLTYMMTGDEDALIHMADPNVKSILIINGRHVHYHGREYWTKMLRDLGFKHTRIRRVDLQGDYSRLDIEDDFNGVYTRSELRLKVVNGRFHTIEINIH
3. DEWEELIEETAENIIRFIETGDEDFFRTFADPHMRFIYDQGDFRLIDHGREKVSEWLIRFLQEMRIIFIIEDVKVQGDKAHSQGRIHVNINGQRHEFNSRVIVVWVNGRLKYFRMSVR
4. SEDEHLTRNLAKDTIRALETGDEDRLNELFDPDVRLEIGDFMSHGRKSFTDTLRRFKNLTLHIHDMRVIGDKVHIDGEVDWNGQRRKTEIIIVIVDGKLKQIHYNIH
5. DHEFEDSKRATEETLHLIETGNEEKIRQLADPHVRIIIFINGRDIHLHGREELSRHISEMGVDHRRWTELRLFEGHAENDVKVNFNGREFKVIIFVRKVNGRWVIERLEVHVI
6. HEEHEKLRQLIEWYLEMLRTGDEESWLHLADPHVRNDVIYDGRHFQSHGRDRALDLLRLMLDLLGAKHLEVKRYRVIDGRVELDGRSRVGDKYQEMHLHLDVFNGRIHEMRIEIR

Reply:
1.48
1.08
1.43
0.874
2.25
0.58
